biological target: GSK-3αβ; assay: GSK-3 kinase inhibition (GS-1 substrate); conditions: read-out: IC50 μM Kinases GSK3, buffer A, 30° C., 15 μM ATP
readout kind: IC50 (µM)

Observe how each entry below is paired with its result.
molecule | unit text | IC50
O=C(Nc1cc(-c2ccccc2)on1)Nc1cccc2c1C1CCCCN1C2=O (stereo not drawn) [Compound 25] | µM | 0.27
O=C(Nc1ccncn1)Nc1cccc2c1C1CCCCN1C2=O (stereo not drawn) [Compound 32] | µM | 0.36
O=C1CCN2C(=O)c3cccc(NC(=O)Nc4cc(O)c5ccccc5n4)c3C2C1 (stereo not drawn) [Compound 103] | µM | 1.3
O=C(Nc1cccc2c1C1CCCCN1C2=O)Nc1nc(Cl)c(Cl)c(Cl)c1Cl (stereo not drawn) [Compound 33] | µM | 4.3
Cc1cnc(NC(=O)Nc2cccc3c2C2CC4(CCN2C3=O)SCCS4)cn1 (stereo not drawn) [Compound 51] | µM | 0.05

I = Cc1nc(NC(=O)Nc2cccc3c2C2CCCCN2C3=O)cs1 (stereo not drawn) [Compound 35]
II = Cn1ccc(NC(=O)Nc2cccc3c2C2CC4(CCN2C3=O)SCCS4)n1 (stereo not drawn) [Compound 40]
III = O=C1c2cccc(NC(=S)Nc3cc[nH]n3)c2C2CCCCN12 (stereo not drawn) [Compound 64]
IV = O=C(Nc1nc2ccccc2s1)Nc1cccc2c1C1CCCCN1C2=O (stereo not drawn) [Compound 34]
Query string: // sort entries: IC50, high to low List the labels in the requested order.
Result string: III, IV, II, I
(III: 16 µM, IV: 3.5 µM, II: 1.9 µM, I: 0.12 µM)

I = O=C1c2cccc(NC(=S)Nc3ccccn3)c2C2CC3(CCN12)SCCS3 (stereo not drawn) [Compound 70]
II = O=C(Nc1cccc(Br)n1)Nc1cccc2c1C1CC3(CCN1C2=O)OCCO3 (stereo not drawn) [Compound 47]
III = O=C(Nc1cnccn1)Nc1cccc2c1C1C[C@@H](O)CCN1C2=O (stereo partly drawn) [Compound 105]
IV = Cc1cccnc1NC(=O)Nc1cccc2c1C1CC3(CCN1C2=O)OCCO3 (stereo not drawn) [Compound 45]
V = COc1cc(NC(=O)Nc2cccc3c2C2CC(OC)CCN2C3=O)nc2ccccc12 (stereo not drawn) [Compound 55]
Query string: // sort entries: IC50, high to low List the labels in the requested order.
Result string: I, II, IV, V, III

a = O=C1c2cccc(NC(=S)Nc3ccc(Br)cn3)c2C2CCCCN12 (stereo not drawn) [Compound 66]
b = O=C(Nc1cnccn1)Nc1cccc2c1C1CC3(CCN1C2=O)SCCS3 (stereo not drawn) [Compound 17]
c = O=C(Nc1cscn1)Nc1cccc2c1C1CCCCN1C2=O (stereo not drawn) [Compound 26]
Query string: // sort entries: IC50, high to low List the labels in the requested order.
Result string: a, c, b
(a: 2.1 µM, c: 0.76 µM, b: 0.044 µM)
